biological target: T1, human MCH-1R (human, UniProt Q99705 1-353); assay: SPA competition with [125I]-human MCH (Phe13, Tyr19) on receptor membranes
T1 construct: also called MCH-R1
T1 sequence (Q99705 whole entry, form in doubt): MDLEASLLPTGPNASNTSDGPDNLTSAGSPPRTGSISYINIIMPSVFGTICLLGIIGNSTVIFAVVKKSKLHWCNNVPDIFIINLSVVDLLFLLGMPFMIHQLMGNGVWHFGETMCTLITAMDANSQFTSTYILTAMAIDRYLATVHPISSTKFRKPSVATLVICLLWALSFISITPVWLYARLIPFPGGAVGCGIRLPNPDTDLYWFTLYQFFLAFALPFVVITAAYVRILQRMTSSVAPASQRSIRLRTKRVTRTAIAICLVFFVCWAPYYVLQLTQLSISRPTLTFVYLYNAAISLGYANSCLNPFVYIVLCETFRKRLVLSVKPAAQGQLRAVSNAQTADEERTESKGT
Bridges are numbered along the chain shown (N, C = ends). [ ]: non-standard residue; d: D form. hArg = N=C(N)NCCCC[C@H](N)C(=O)O; Aib = CC(C)(N)C(=O)O; GABA = NCCCC(=O)O
property-name: log10 IC50 (log10 of the value in nM)
Hi team, quick reminder: these entries are log10 of IC50 (nM).

Ac-RCML[Aib]RVYRPC-NH2 (disulfide 2-11; SMILES CSCC[C@@H]1NC(=O)[C@@H](NC(=O)[C@H](CCCNC(=N)N)NC(C)=O)CSSC[C@@H](C(N)=O)NC(=O)[C@@H]2CCCN2C(=O)[C@H](CCCNC(=N)N)NC(=O)[C@H](Cc2ccc(O)cc2)NC(=O)[C@H](C(C)C)NC(=O)[C@H](CCCNC(=N)N)NC(=O)C(C)(C)NC(=O)[C@H](CC(C)C)NC1=O, also called Aib^10) [SEQ. ID. NO. 11]; 1.95

// for each binder below, give its log10 IC50
1. Ac-RCML[dA][hArg]VYRPC-NH2 (disulfide 2-11 (inferred), also called D-Ala^10, Harg^11) [SEQ. ID. NO. 36]
2. Ac-RCMLGRVYRPC-NH2 (disulfide 2-11 (inferred), positions numbered 6-16 as in hMCH) [truncated form of human MCH, SEQ. ID. NO. 2]
3. RCMLXRVYRPC (Phg^10 (phenylglycine), also called Phg^10) [SEQ. ID. NO. 12]
4. Ac-RCML[dS]RVYRPC-NH2 (disulfide 2-11 (inferred), also called D-Ser^10) [SEQ. ID. NO. 19]
5. Ac-RCML[GABA]RVYRPC-NH2 (disulfide 2-11 (inferred), also called εAbu^10) [SEQ. ID. NO. 21]

[1.75, 0.15, 0.46, 1.49, 0.32]
